test system: SNB-78; test: NCI tumour cell line growth inhibition, 48 h
Activity calls are given as the source filed them. Cut-off read from the data, not from the text of the source: active = GI50 up to about 1.1 µM and inactive = higher.
recorded endpoint: GI50

- compound: "Cc1c(C(=O)NCCO)[n+]([O-])c2cc(Cl)ccc2[n+]1[O-]"
  recorded endpoint: "GI50"
  readout value: "> 100 µM (inactive)"
- compound: "C=CCC1=C2CCCCC2CCC1=O (stereo not given)"
  recorded endpoint: "GI50"
  readout value: "> 100 µM (inactive)"
- compound: "OC(c1ccccn1)C1CNc2ccccc21 (stereo not given)"
  recorded endpoint: "GI50"
  readout value: "> 100 µM (inactive)"
- compound: "Cc1ccc(CCC(=O)C(=O)O)s1"
  recorded endpoint: "GI50"
  readout value: "> 100 µM (inactive)"
- compound: "Cc1ccc(S(=O)(=O)N/N=C(\\c2nc3ccc([N+](=O)[O-])cc3[nH]c2=O)C(O)c2ccc([N+](=O)[O-])cc2)cc1 (stereo not given)"
  recorded endpoint: "GI50"
  readout value: "> 100 µM (inactive)"
- compound: "COc1ccc(C(=O)C(c2ccc(OC)cc2)C2(O)C(=O)Nc3c(Cl)cc(Cl)cc32)cc1 (stereo not given)"
  recorded endpoint: "GI50"
  readout value: "18.3 µM (inactive)"
- compound: "O=C1CCC(c2ccccc2)=NN1c1nsc2ccccc12"
  recorded endpoint: "GI50"
  readout value: "> 100 µM (inactive)"
- compound: "Cc1cc2c(cc1C)[n+]([O-])c(-c1c(Cl)cccc1Cl)c(N)[n+]2[O-]"
  recorded endpoint: "GI50"
  readout value: "43.9 µM (inactive)"
- compound: "Nc1n[nH]c(N)n1 [GUANAZOLE]"
  recorded endpoint: "GI50"
  readout value: "5250 µM (inactive)"
- compound: "NC(=O)c1csc(C2OC(COP(=O)(O)CP(=O)(O)OCC3OC(n4cnc5c(N)ncnc54)C(O)C3O)C(O)C2O)n1 (stereo not given)"
  recorded endpoint: "GI50"
  readout value: "> 100 µM (inactive)"

###

tested on: HT-29; test: NCI tumour cell line growth inhibition, 48 h
Calls of active or inactive are those of the source. No stated cut-off is given here; in the data, active = GI50 up to about 1.1 µM and inactive = higher. Residues, ends and D or L forms follow the SMILES beside them.
Below, each entry is listed alongside its reported GI50.
recorded endpoint: GI50

- molecule: "O=C1OC(=O)C2C3CCC(O3)C12 (configuration not stated)"
  readout value: "> 100 µM (inactive)"
- molecule: "CS[C@]12[C@@H]3C(=O)N(C)C(=O)[C@@H]3[C@](C)(C(=O)N1C)C(=O)N2c1ccccc1"
  readout value: "> 100 µM (inactive)"
- molecule: "COC(=O)c1c(OC)cc2cc3c(c(O)c2c1C)C(=O)C1(O)C(=O)C=C(OC)C(OC(=O)CC(C)N)=C1C3=O (configuration not stated)"
  readout value: "4.88 µM (inactive)"
- molecule: "Oc1c2cccc1Cc1cccc3c1OCCOCCOCCOCCOc1c(cccc1Cc1cccc(c1O)C3)C2"
  readout value: "54.3 µM (inactive)"
- molecule: "CCOC(=O)NC(=O)c1cn(CCN2CCN(C(=O)NCCCCCCNC(=O)N3CCN(CCn4cc(C(=O)NC(=O)OCC)c(=O)[nH]c4=O)CC3)CC2)c(=O)[nH]c1=O"
  readout value: "> 100 µM (inactive)"
- molecule: "CC(=O)N1c2ccccc2C23CCN4CC5=CCOC(O)C(C5CC42)C13 (configuration not stated)"
  readout value: "> 100 µM (inactive)"
- molecule: "CCC(C)C(NC(=O)C1CCCN1)C(=O)NC(C(=O)NCC(=O)NC(CC(N)=O)C(=O)NC(CC(C)C)C(=O)NC(CC(C)C)C(=O)NC(CCCCN)C(N)=O)C(C)C (configuration not stated) (H-PIVGNLLK-NH2; configuration not given here)"
  readout value: "> 75 µM (inactive)"

###

system: LOX IMVI; assay: NCI tumour cell line growth inhibition, 48 h
The source made the active and inactive calls. Rule as the data show it: active = GI50 up to about 1.1 µM and inactive = higher.
Classes used: True (active), False (inactive)

- molecule: "CCOC(=O)C1=C(C)N(c2ccc(Cl)cc2)C2(O)C=CC(=O)C3C(=O)N(c4ccccc4)C(=O)C132 (stereo not given)"
  assigned class: "False"
- molecule: "Cc1cn(C2CC(N/C(=N/C#N)NCC3OC(n4cnc5c(N)ncnc54)CC3O)C(CO)O2)c(=O)[nH]c1=O (stereo not given)"
  assigned class: "False"
- molecule: "CO[C@H]1C=C[C@@]23c4cc5c(cc4CO[C@]2(O)CN(C)[C@H]3C1)OCO5"
  assigned class: "False"
- molecule: "COc1ccc(/C=C(/C)[N+](=O)[O-])cc1"
  assigned class: "False"
- molecule: "Cc1nc2c(n1CC(C)C)C(=O)c1ccccc1C2=O"
  assigned class: "False"
- molecule: "CCCS(=O)(=O)O"
  assigned class: "False"
- molecule: "O=[N+]([O-])c1ccc(-n2nc3ccc4c(no[n+]4[O-])c3n2)cc1"
  assigned class: "False"
- molecule: "COc1ccc(C(=O)C(c2ccc(OC)cc2)C2(O)C(=O)Nc3c(Cl)cc(Cl)cc32)cc1 (stereo not given)"
  assigned class: "False"
- molecule: "O=C1c2cccnc2-c2nccc3c2c1nc1cc(Br)ccc13"
  assigned class: "True"
- molecule: "CSC1=N/C(=C\\c2ccc(C)cc2)C(=O)N1"
  assigned class: "False"

###

test system: SK-MEL-2; experiment: NCI tumour cell line growth inhibition, 48 h
The source made the active and inactive calls. Cut-off read from the data, not from the text of the source: active = GI50 up to about 1.1 µM and inactive = higher.

- compound: "COC1=CC(=O)c2ccc(C(C)C)cc2C1(C)C1=NC(C)(C)CO1 (stereo not given)"
  study system: "SK-MEL-2"
  GI50: "> 100 µM (inactive)"
- compound: "O=C1CCC(c2ccccc2)=NN1c1nsc2ccccc12"
  study system: "SK-MEL-2"
  GI50: "> 100 µM (inactive)"
- compound: "CC(CC(C)[C@H]1CCC2[C@H]3C(CC(=O)[C@@]21C)[C@@]1(C)CCC(O)C[C@H]1C[C@@H]3O)C(=O)O (stereo not given in full)"
  study system: "SK-MEL-2"
  GI50: "> 100 µM (inactive)"
- compound: "CCCCC(C)C(OC(=O)CC(CC(=O)O)C(=O)O)C(CC(C)CC(O)CCCCC(O)CC(O)C(C)N)OC(=O)CC(CC(=O)O)C(=O)O (stereo not given)"
  study system: "SK-MEL-2"
  GI50: "> 100 µM (inactive)"
- compound: "CC(=O)Nc1ccc(-c2nc3ccccc3s2)cc1I"
  study system: "SK-MEL-2"
  GI50: "50.4 µM (inactive)"
- compound: "CCOC(=O)C#Cc1ccccc1"
  study system: "SK-MEL-2"
  GI50: "1.69 µM (inactive)"
- compound: "CC1C(c2ccc3c(c2)OCO3)c2cc3c(cc2OC1N1CCCC1)OCO3 (stereo not given)"
  study system: "SK-MEL-2"
  GI50: "31.3 µM (inactive)"
- compound: "O=C(NC12CC3CC(CC(C3)C1)C2)C(=O)c1c[nH]c2ccc(Cl)cc12"
  study system: "SK-MEL-2"
  GI50: "26.7 µM (inactive)"
- compound: "CC1NOC(=O)C1/N=N/c1cccc(Cl)c1 (stereo not given)"
  study system: "SK-MEL-2"
  GI50: "16.5 µM (inactive)"
- compound: "COC(=O)C(Cc1nc2ccc(Cl)cc2nc1O)C(=O)C(=O)Nc1cc(C)ccc1C (stereo not given)"
  study system: "SK-MEL-2"
  GI50: "> 100 µM (inactive)"

###

test system: NCI/ADR-RES; experiment: NCI tumour cell line growth inhibition, 48 h
Activity calls are given as the source filed them. No stated cut-off is given here; in the data, active = GI50 up to about 1.1 µM and inactive = higher.
Outcomes: active, inactive

- compound: "COc1cc(Cc2cc3c(c(C(=O)O)c2Br)OCO3)cc(OC)c1OC"
  assigned class: "inactive"
- compound: "O=C1OCC2=C1C(c1ccc3c(c1)OCO3)c1cc3c(cc1O2)OCO3 (centres undefined)"
  assigned class: "active"
- compound: "COc1cc2c[n+](C)c3c4ccccc4ccc3c2cc1OC.COc1cc2cnc3c4ccccc4ccc3c2cc1OC"
  assigned class: "inactive"
- compound: "Cc1ccc(NC(=S)NNC(=O)c2cc(-c3ccccc3)nc3ccccc23)cc1C"
  assigned class: "inactive"
- compound: "Cc1cc(S(=O)(=O)/N=C2\\NCCN2Cc2ccccc2)c(S)cc1Cl"
  assigned class: "inactive"
- compound: "O=c1c2ccc(Cl)cc2oc2c(CSc3ccccc3)cccc12"
  assigned class: "inactive"
- compound: "O=C(O)c1cc(-c2ccc3cc4c(cc3c2)OCO4)nc2ccccc12"
  assigned class: "inactive"
- compound: "CCN(CC)c1ccc2cc(-c3nc4ccccc4n3C)c(=O)oc2c1"
  assigned class: "active"
- compound: "CN(/N=C/c1ccc(C(=O)O)cc1)C1=NCCCCN1"
  assigned class: "inactive"
- compound: "Cc1ccc(Cc2nn(C)c(=O)n2N)cc1"
  assigned class: "inactive"
- compound: "Cc1noc(NS(=O)(=O)c2ccc(NC(=O)c3ccc4nc5ccccc5c(Nc5ccc(S(=O)(=O)Nc6onc(C)c6C)cc5)c4c3)cc2)c1C"
  assigned class: "inactive"
- compound: "Cc1occc1/C(S)=N\\c1ccc(Cl)c(C(=O)OCC2CC2)c1"
  assigned class: "inactive"
- compound: "NC(Cc1c[nH]c2ccccc12)C(=O)O (stereo not drawn) [DL-TRYPTOPHAN]"
  assigned class: "inactive"
- compound: "COc1ccc(-n2c(=O)n(-c3ccccc3)c(=O)n2-c2ccc(OC)cc2)cc1"
  assigned class: "inactive"
- compound: "COc1ccc(/C=N/c2c(O)ccc3ccccc23)cc1OC"
  assigned class: "inactive"
- compound: "CCSCC(=O)N1CCc2c([nH]c3ccccc23)C1=O"
  assigned class: "inactive"
- compound: "Nc1n[nH]c(N)n1 [GUANAZOLE]"
  assigned class: "inactive"
- compound: "Cc1ccc2c(O)cc(-c3ccc(Cl)s3)nc2n1"
  assigned class: "active"
- compound: "Cn1ncc2c(NCc3ccccc3)ncnc21"
  assigned class: "inactive"
- compound: "COc1ccc(C(OCC2OC3(COC(c4ccccc4)(c4ccc(OC)cc4)c4ccc(OC)cc4)C(Oc4nc(=O)ccn43)C2O)(c2ccccc2)c2ccc(OC)cc2)cc1 (centres undefined)"
  assigned class: "inactive"
- compound: "COC(=O)c1c(C)cc(OC)c(C/C=C(\\C)CCCc2coc(C=C(C)C)c2)c1OC"
  assigned class: "inactive"
- compound: "CC(SC(=S)N1CCOCC1)C(=O)Nc1nnc(-c2ccc(Cl)cc2)o1 (centres undefined)"
  assigned class: "inactive"
- compound: "Nc1ccc(-c2nc3ccc(Cc4ccc5nc(-c6ccc(N)cc6)oc5c4)cc3o2)cc1"
  assigned class: "inactive"
- compound: "CC(C)(C)c1ccc(OC(=O)Nc2ccc(O)c(C(=O)O)c2)cc1"
  assigned class: "inactive"
